target: jojoba acyl-CoA reductase (Simmondsia chinensis); details: millimolar concentrations (given for CoA and NADP+)
Sequence (Q9XGY7 whole entry): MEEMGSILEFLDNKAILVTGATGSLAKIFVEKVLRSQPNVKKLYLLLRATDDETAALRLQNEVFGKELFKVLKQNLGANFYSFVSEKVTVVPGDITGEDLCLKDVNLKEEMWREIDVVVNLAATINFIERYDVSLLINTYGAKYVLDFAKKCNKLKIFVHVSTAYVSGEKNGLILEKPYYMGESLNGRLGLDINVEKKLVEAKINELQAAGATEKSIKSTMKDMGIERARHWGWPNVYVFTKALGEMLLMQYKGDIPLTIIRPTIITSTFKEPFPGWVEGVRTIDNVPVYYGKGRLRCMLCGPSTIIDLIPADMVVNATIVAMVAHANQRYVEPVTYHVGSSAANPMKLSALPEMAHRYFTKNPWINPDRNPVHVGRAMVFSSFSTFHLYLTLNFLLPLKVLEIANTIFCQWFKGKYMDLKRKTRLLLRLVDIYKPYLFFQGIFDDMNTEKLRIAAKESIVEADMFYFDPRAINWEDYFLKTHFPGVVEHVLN
parameter-measured: effect on reductase activity (in words)

// effect on reductase activity (in words) lookup, key: NC(=O)c1ccc[n+]([C@@H]2O[C@H](COP(=O)([O-])OP(=O)(O)OC[C@H]3O[C@@H](n4cnc5c(N)ncnc54)[C@H](OP(=O)(O)O)[C@@H]3O)[C@@H](O)[C@H]2O)c1 [NADP+]
significant inhibition

// effect on reductase activity (in words) lookup, key: NC(=O)C1=CN([C@@H]2O[C@H](COP(=O)(O)OP(=O)(O)OC[C@H]3O[C@@H](n4cnc5c(N)ncnc54)[C@H](O)[C@@H]3O)[C@@H](O)[C@H]2O)C=CC1 [NADH]
marginal effects

// effect on reductase activity (in words) lookup, key: CC(C)(COP(=O)(O)OP(=O)(O)OC[C@H]1O[C@@H](n2cnc3c(N)ncnc32)[C@H](O)[C@@H]1OP(=O)(O)O)[C@@H](O)C(=O)NCCC(=O)NCCS [CoA, CoenzymeA]
significant inhibition

// effect on reductase activity (in words) lookup, key: NC(=O)c1ccc[n+]([C@@H]2O[C@H](COP(=O)([O-])OP(=O)(O)OC[C@H]3O[C@@H](n4cnc5c(N)ncnc54)[C@H](O)[C@@H]3O)[C@@H](O)[C@H]2O)c1 [NAD+]
marginal effects

The values you see were collected from patent US5411879A.
